# assaySummary: Antioxidant activity assessed as superoxide anion radical scavenging activity after 20 mins by xanthine/xanthine oxidase method
# Assay type: physicochemical
pIC50: −log10 of the molar value.
metricName: pIC50

Looking up `CCN(CC)CCOc1cc(O)cc2oc(-c3cc(O)c(O)c(O)c3)c(OC)c(=O)c12` , I found its pIC50 recorded as < 4.00

get_value(item= `COc1c(-c2cc(O)c(O)c(O)c2)oc2cc(OCCN3CCCCC3)cc(O)c2c1=O` , readout=pIC50) returns < 4.00

// pIC50 lookup, compound = `COc1c(-c2cc(O)c(O)c(O)c2)oc2cc(O)cc(OCCN3CCCCC3)c2c1=O` , result: < 4.00
